TARGET DESC: IDH2 R140Q (Homo sapiens (Human), UniProt P48735, R140Q)
Sequence (P48735 40-452 R140Q): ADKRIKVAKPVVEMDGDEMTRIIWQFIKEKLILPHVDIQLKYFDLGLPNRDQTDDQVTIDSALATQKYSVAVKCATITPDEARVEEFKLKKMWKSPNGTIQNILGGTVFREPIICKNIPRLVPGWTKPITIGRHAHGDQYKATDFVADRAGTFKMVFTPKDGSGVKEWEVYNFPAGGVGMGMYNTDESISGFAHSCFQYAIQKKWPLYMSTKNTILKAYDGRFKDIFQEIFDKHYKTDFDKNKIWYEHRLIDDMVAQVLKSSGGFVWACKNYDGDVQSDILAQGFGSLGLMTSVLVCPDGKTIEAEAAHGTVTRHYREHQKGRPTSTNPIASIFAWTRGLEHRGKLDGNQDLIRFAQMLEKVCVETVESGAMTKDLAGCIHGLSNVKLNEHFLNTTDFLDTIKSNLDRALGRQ
PROCEDURE TEXT: IDH2 R140Q cofactor depletion assay (Table 4 column 7)
pIC50: −log10 of the molar value.
READOUT TYPE: pIC50

Item CC(C)(O)CNc1nc(Nc2ccnc(C(F)(F)F)c2)nc(-c2cccc(C(F)(F)F)n2)n1 [Compound 288] has what recorded pIC50?
6.00 to 7.00

Just for reference, patent US10946023B2 is where these values come from.
